System: LOC_OS01G63280-cb003
protocol summary: thermal shift delta Tm vs DMSO control; higher = stronger stabilization (binding);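 further: purified Escherichia coli-expressed rice kinase domain construct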
experimental context: 12.5 µM; protein concentration 2 µM
metric name: thermal shift delta Tm (°C)
Numeric answer only, unit °C assumed.

Example compounds with recorded thermal shift delta Tm:
Entry CC(C)(C)c1ccc(S(=O)(=O)/C=C/C#N)cc1 : reported thermal shift delta Tm = ?
-3.74

Same read-out for CC(C)(C)Cn1c(N)nc2ccc(-c3[nH]c(C(C)(C)C)nc3-c3ccc(F)cc3)nc21 ?
-0.16

Item: O=C(NOCC1CC1)c1ccc(F)c(F)c1Nc1ccc(I)cc1Cl
0.93

Also check C#Cc1cccc(Nc2ncnc3cc4c(cc23)OCCOCCOCCO4)c1 [Icotinib]
0.89

Then this compound: O=C1NC(=O)/C(=C/c2cccc(C(F)(F)F)c2)S1
0.28

Try the compound CCCCNc1ncc(C(=O)NCc2ccc(-n3ccnc3)cc2)c(NC2CCC(O)CC2)n1 (stereo not given)
0.72

Next compound up: O=C(Nc1cccnc1)c1cc(-c2ccnc(F)c2)ccc1OCc1ccccc1
-0.26

Another compound to look at: COc1cc(N2CCC(N(C)C)CC2)ccc1Nc1ncc(Cl)c(Nc2ccccc2P(C)(C)=O)n1
0.32

Next record, please: COc1ccc(Oc2cc(NCCC(F)(F)F)c3ncc(-c4ccc(C(=O)NC5CC5)c(C)c4)n3n2)c(F)c1F
0.82

What do you have for Cc1cc(F)c(Nc2ncnc3cc(OCc4ccccc4)ccc23)cc1O ?
1.25

Further cases:
Please report the recorded thermal shift delta Tm for CC(C)(CCCCCC(O)CCCCCC(C)(C)C(=O)O)C(=O)O .
-0.01

For CC(C)(CO)n1cc(C(=O)c2cncc(NC(=O)Cc3ccc(Cl)cn3)c2)c2cnc(N)nc21 then?
0.14

Record: C[C@@H](Oc1ccc2[nH]nc(/C=C/c3cnn(CCO)c3)c2c1)c1c(Cl)cncc1Cl
7.65

Repeat for the following compound: Cc1[nH]c(/C=C2\C(=O)Nc3ccc(S(=O)(=O)N(C)c4cccc(Cl)c4)cc32)c(C)c1C(=O)N1CCN(C)CC1
-0.04

Next: C=CC(=O)N1CCN(CCCn2c(=O)c(-c3c(Cl)c(OC)cc(OC)c3Cl)cc3cnc(NC)nc32)CC1
-0.06

====

Tested on: LOC_OS04G35114-cb001
protocol summary: thermal shift delta Tm vs DMSO control; higher = stronger stabilization (binding)
experimental context: 12.5 µM; protein concentration 2 µM
Counter-ions that a name gives are not always drawn.
metric name: thermal shift delta Tm

Worked set:
Look up thermal shift delta Tm for this compound: COc1ccc(-c2ccc3c(N4CCOC[C@@H]4C)nc(N4CCOC[C@@H]4C)nc3n2)cc1CO
0.4 °C

Another compound to look at: O=C(O)c1ccc(-c2c[nH]c3ncc(-c4ccccc4)cc23)cc1C1CCCC1
2.01 °C

Next: Cc1ccc(F)c(NC(=O)Nc2ccc(-c3cccc4[nH]nc(N)c34)cc2)c1
2.54 °C

Repeat with O=C1NC(=O)/C(=C/c2ccc3c(c2)OC(F)(F)O3)S1
0.97 °C

Proceed to CN(C)CCCn1cc(C2=C(c3c[nH]c4ccccc34)C(=O)NC2=O)c2ccccc21
1.37 °C

What do we get for OCCn1cc(-c2cnc3nnn(Cc4ccc5ncccc5c4)c3n2)cn1 ?
0.87 °C

// next record CONC(=O)c1ccccc1Nc1cc(Nc2cc(C)nn2C(C)C)ncc1Cl
0.79 °C

Input CCN1CCN(Cc2ccc(-c3cc4c(N[C@H](C)c5ccccc5)ncnc4[nH]3)cc2)CC1
3.16 °C

***
Please report the recorded thermal shift delta Tm for Cc1[nH]c(/C=C2\C(=O)Nc3ccc(S(=O)(=O)Cc4c(Cl)cccc4Cl)cc32)c(C)c1C(=O)N1CCC[C@@H]1CN1CCCC1 .
7.26 °C

# repeat for C[C@H]1CNC(=O)c2cnn3ccc(nc23)N[C@H](C)c2cc(F)ccc2O1
2.45 °C

Another compound to look at: O=C1NCCc2[nH]c(-c3ccncc3)cc21
0.84 °C

Moving on to the next compound: Cc1nc(N)sc1-c1ccnc(Nc2ccc(N3CCOCC3)cc2)n1
5.04 °C

Same lookup for C[C@@H](N)[C@H]1CC[C@H](C(=O)Nc2ccncc2)CC1 , please.
0.03 °C

And CCN1CCN(Cc2ccc(C(=O)Nc3ccc(C)c(Oc4ccc5c(c4)CC(=O)N5)c3)cc2C(F)(F)F)CC1 ?
1.2 °C

Please answer likewise for CCCNC(=O)Nc1ccc(Oc2ncnc3cc(OC)c(OC)cc23)cc1Cl
0.48 °C

Thanks! And COc1cc(Nc2c(C#N)cnc3cc(OCCCN4CCN(C)CC4)c(OC)cc23)c(Cl)cc1Cl [Bosutinib (SKI-606)] ?
0.86 °C

How about CCOc1cn(-c2ccc(F)cc2C)nc1C(=O)Nc1ccc(Oc2ccnc3cc(OC)c(OC)cc23)c(F)c1 ?
1.9 °C

Now consider O=C1NC(=O)/C(=C/c2cccc(C(F)(F)F)c2)S1 .
0.62 °C

Can you handle N#CC1(c2ccc(NC(=O)c3cccnc3NCc3ccncc3)cc2)CCCC1 next?
0.72 °C

# iterate: COCCOc1ccc2c(c1)ncn2-c1ccc2cccc(N3CCC(N)CC3)c2n1
10 °C

Can you handle CO[C@H]1C[C@@H]2CC[C@@H](C)[C@@](O)(O2)C(=O)C(=O)N2CCCC[C@H]2C(=O)O[C@H]([C@H](C)C[C@@H]2CC[C@@H](OC(=O)C(C)(CO)CO)[C@H](OC)C2)CC(=O)[C@H](C)/C=C(\C)[C@@H](O)[C@@H](OC)C(=O)[C@H](C)C[C@H](C)/C=C/C=C/C=C/1C next?
-0.13 °C

Then what about the compound COc1cc2/c(=N/c3ccc(Br)cc3F)nc[nH]c2cc1OCC1CCN(C)CC1 [Vandetanib (ZD6474)] ?
8.6 °C

And then O=C(Nc1cnn2ccc(N3CCC[C@@H]3c3cc(F)ccc3F)nc12)N1CC[C@H](O)C1 [Larotrectinib (LOXO-101) sulfate] , what is it?
1.91 °C

Next record, please: COc1cc2nccc(Oc3ccc(NC(=O)C4(C(=O)Nc5ccc(F)cc5)CC4)cc3)c2cc1OC
1.45 °C
